Target: T1, His-tagged human B7-H3 (human, UniProt Q5ZPR3-2 29-245, limits assumed)
T1 construct: Bought His-tagged protein coated on the ELISA plate; also called hu B7-H3; CD276
T1 sequence (looked up): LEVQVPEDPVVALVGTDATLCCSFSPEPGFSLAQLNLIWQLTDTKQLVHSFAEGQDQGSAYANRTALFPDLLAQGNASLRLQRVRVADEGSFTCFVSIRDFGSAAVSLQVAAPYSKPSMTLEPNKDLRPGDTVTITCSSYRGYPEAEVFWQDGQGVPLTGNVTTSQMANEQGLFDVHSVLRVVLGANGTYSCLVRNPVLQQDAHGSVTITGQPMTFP
Assay: ELISA, coated His-tagged antigen, scFv-Fc 1 ug/ml
property: ELISA OD450 @ 1 ug/ml

Some solved entries appear below for comparison.
40511p1.1.D6 (scFv, V domains shown, Tested as scFv-Fc (Expi293 supernatant)) VH: DVQLVESGGGVVRPGESLTLSCAASGFTINSYAVSWVRQAPGEGLEWVSGISGSGVRYYADSVKGRFTISRDNSNNTLYLQMNSLRAEDTAVYYCARSNKVTWNNFFDYWGLGTLVTVSS VL: EVVLTQSPGTLTLSPGERATLSCRASRSILTSLAWYQQKPGQAPRLLIYNTVTRATGIPARFSGSGSGTEFTLTINSLQSEDFAVYYCQQYYDWPPLTFGGGTKVEIK = 1.92 OD450
40633p1.2.A8 (scFv, V domains shown, Tested as scFv-Fc (Expi293 supernatant)) VH: EVQLLESGGGLLQPGGSLRLSCAASGFSFSSYGMHWVRQAPGKGLEWVAAINSDGSRIYYADSVKGRFTISRDNSKNTLYLQMNSLRAEDTAVYYCTKYYYHYAMDVWGQGTTVTVSS VL: QSVLTQPPSASGTPGQRVTISCSGSRSDIGATTVNWYQQLPGTAPKLLIYQSHLRPSGVPDRFSGSKSGTSASLAISGLQSEDEADYYCASWDASLNTWVFGGGTKLTVL = 2.17 OD450
40633p1.2.D11 (scFv, V domains shown, Tested as scFv-Fc (Expi293 supernatant)) VH: EVQLESGGGLVQPGGSLRLSCAASGFTVSYYGMSWVRQAPGKGLEWVSAIKQDGSEKYYADSVKGRFTISRDNSKNTLYLQMNSLRAEDTAVYYCARHWNDYSNAMNVWGQGTTVTVSS VL: QSVLTQPPSASGTPGQRVTISCSGSTSNIAIDFVNWYQQLPGTAPKLLIYTIDQRPSGVPDRFSGSKSGTSASLAISGLQSEDEAVYYCASWDASLNGWVFGRGTKLTVL = 1.53 OD450
40511p1.2.A4 (scFv, V domains shown, Tested as scFv-Fc (Expi293 supernatant)) VH: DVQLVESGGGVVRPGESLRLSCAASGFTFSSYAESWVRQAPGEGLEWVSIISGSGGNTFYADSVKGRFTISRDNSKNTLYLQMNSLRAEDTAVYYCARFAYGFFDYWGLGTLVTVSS VL: EIVLTQSPGTLSVSPGERATLSCRASQTVGSKLAWYQQKPGQAPRLLIYDASTRATDIPDRFSGSGSGTDFTLTISSLQSEDFAVYYCQQYRNWPPLTFGGGTKVEIK = 2.06 OD450

Q: Report ELISA OD450 @ 1 ug/ml for 40633p1.1.G10 (scFv, V domains shown, Tested as scFv-Fc (Expi293 supernatant)) VH: EVQLLESGGGLVEPGGSLRLSCAASGFSFSSYGMHWVRQAPGKGLDWVAVINGEGSGTYYADSVKGRFTISRDNSKSTLYLQMNSLRAEDTAVYYCTKYYYNYAMDVWGQGTTVTVSS VL: QSVLTQPPSASGTPGQRVTISCSGSRTDIGTTSVNWYQQLPGTAPKLLIYQSHQRPSGVPDRFSGSKSGTSASLAISGLQSEDEADYYCASWDASQNTWVFGGGTKLTVL please.
Result: 2.2 OD450
